- assayedTarget: FAK FAT domain (paxillin-FAT binding) (Homo sapiens, UniProt Q05397)
- Construct: FP Buffer containing 20 μM FAT and 0.1 μM TAMRA-LD2
- assayMethodText: Competition fluorescence polarization (FP) assay, inhibition of TAMRA-LD2 binding to FAT
- testConditions: read-out: FP Ki
pKi: −log10 of the molar value. Positions of bridges follow the written chain, without caps; N, C: chain ends. Non-standard residues stand in square brackets, D forms with d. Residues, ends and D or L forms follow the SMILES beside them. R8 = C=CCCCCCC[C@@](C)(N)C(=O)O; S5 = C=CCCC[C@](C)(N)C(=O)O
measuredQuantity: pKi

compound	assayedTarget	number
CC(=O)N[C@@H](CC(N)=O)C(=O)N[C@@H](CC(C)C)C(=O)N[C@]1(C)CCCCCCC=CCCC[C@@](C)(C(=O)N[C@@H](CCC(=O)O)C(=O)N[C@@H](CC(C)C)C(=O)N[C@@H](CC(N)=O)C(N)=O)NC(=O)[C@H](CC(C)C)NC(=O)[C@H](CC(C)C)NC(=O)[C@H](CCCNC(=N)N)NC(=O)[C@H](CC(=O)O)NC(=O)[C@H](CC(C)C)NC(=O)[C@H](C)NC1=O [Peptide 2009, Ac-NLR8ALDRLLS5ELN-NH2] (Ac-NL[R8]ALDRLL[S5]ELN-NH2; staple 3-10)	FAK FAT domain (paxillin-FAT binding) (Homo sapiens, UniProt Q05397)	4.57

----------
- assayedTarget: trypsin (Bos taurus, UniProt P00760)
- Construct: purchased ThermoFisher
- Sequence (P00760 24-246): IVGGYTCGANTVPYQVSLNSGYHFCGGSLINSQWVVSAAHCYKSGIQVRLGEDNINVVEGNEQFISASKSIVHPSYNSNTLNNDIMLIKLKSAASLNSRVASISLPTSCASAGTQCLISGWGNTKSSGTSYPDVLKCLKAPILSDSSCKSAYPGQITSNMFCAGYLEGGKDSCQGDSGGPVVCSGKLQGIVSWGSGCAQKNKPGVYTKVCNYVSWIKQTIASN
- assayMethodText: In vitro trypsin digest assay (trypsin-agarose beads, LC-MS)
- Type: in vitro ADME
- testConditions: trypsin-agarose beads in physiological buffer, read-out: t1/2 in trypsin digest (protease resistance) (converted)
Measured half-life values are reported for all entries that follow.
measuredQuantity: half-life (h)

compound	measuredQuantity	readoutRelation	number
CCCCCCCCCCCCCC(=O)N[C@@H](CC(N)=O)C(=O)N[C@@H](CC(C)C)C(=O)N[C@]1(C)CCCCCCC=CCCC[C@@](C)(C(=O)N[C@@H](CCC(=O)O)C(=O)N[C@@H](CC(C)C)C(=O)N[C@@H](CC(N)=O)C(N)=O)NC(=O)[C@H](CC(C)C)NC(=O)[C@H](CC(C)C)NC(=O)[C@H](CCCNC(=N)N)NC(=O)[C@H](CC(=O)O)NC(=O)[C@H](CC(C)C)NC(=O)[C@H](CCC(=O)O)NC1=O [Peptide 2012, Myristoyl-NLR8ELDRLLS5ELN-NH2]	half-life	>	48
CC(=O)N[C@@H](CC(N)=O)C(=O)N[C@@H](CC(C)C)C(=O)N[C@@H](CO)C(=O)N[C@@H](CCC(=O)O)C(=O)N[C@@H](CC(C)C)C(=O)N[C@@H](CC(=O)O)C(=O)N[C@@H](CCCNC(=N)N)C(=O)N[C@@H](CC(C)C)C(=O)N[C@@H](CC(C)C)C(=O)N[C@@H](CC(C)C)C(=O)N[C@@H](CCC(=O)O)C(=O)N[C@@H](CC(C)C)C(=O)N[C@@H](CC(N)=O)C(N)=O [Peptide 1967, reference compound]	half-life	=	0.69
CC(=O)N[C@@H](CC(N)=O)C(=O)N[C@@H](CC(C)C)C(=O)N[C@]1(C)CCCCCC/C=C/CCC[C@@](C)(C(=O)N[C@@H](CCC(=O)O)C(=O)N[C@@H](CC(C)C)C(=O)N[C@@H](CC(N)=O)C(N)=O)NC(=O)[C@H](CC(C)C)NC(=O)[C@H](CC(C)C)NC(=O)[C@H](CCCNC(=N)N)NC(=O)[C@H](CC(=O)O)NC(=O)[C@H](CC(C)C)NC(=O)[C@H](CCC(=O)O)NC1=O [Peptide 1907, Ac-NLR8ELDRLLS5ELN-NH2]	half-life	=	15.7

----------
Measured pKd values are reported for all entries that follow.
- assayedTarget: FAK FAT domain (biotinylated Avitag-FAT protein) (Homo sapiens)
- Construct: biotinylated Avitag-FAT protein was diluted in running buffer
- assayMethodText: Surface plasmon resonance (SPR) binding to immobilised FAT protein
- testConditions: FAT protein immobilised, peptide 200 μM-0.01 μM, 1:1 binding model; read-out: SPR KD
pKd: −log10 of the molar value. Positions of bridges follow the written chain, without caps; N, C: chain ends. Non-standard residues stand in square brackets, D forms with d. Residues, ends and D or L forms follow the SMILES beside them. R8 = C=CCCCCCC[C@@](C)(N)C(=O)O; R5 = C=CCCC[C@@](C)(N)C(=O)O; S5 = C=CCCC[C@](C)(N)C(=O)O

compound	readoutRelation	pKd
CC(=O)N[C@@H](CC(N)=O)C(=O)N[C@]1(C)CCCC=CCCC[C@@](C)(C(=O)N[C@@H](CC(=O)O)C(=O)N[C@@H](CCCNC(=N)N)C(=O)N[C@@H](CC(C)C)C(=O)N[C@@H](CC(C)C)C(=O)N[C@@H](CC(C)C)C(=O)N[C@@H](CCC(=O)O)C(=O)N[C@@H](CC(C)C)C(=O)N[C@@H](CC(N)=O)C(N)=O)NC(=O)[C@H](CCC(=O)O)NC(=O)[C@H](CO)NC1=O [Peptide 2024] (Ac-N[R5]SE[S5]DRLLLELN-NH2; staple 2-5)	<	3.70
CCCCCCCCCCCCCC(=O)N[C@@H](CC(N)=O)C(=O)N[C@@H](CC(C)C)C(=O)N[C@]1(C)CCCCCCC=CCCC[C@@](C)(C(=O)N[C@@H](CCC(=O)O)C(=O)N[C@@H](CC(C)C)C(=O)N[C@@H](CC(N)=O)C(N)=O)NC(=O)[C@H](CC(C)C)NC(=O)[C@H](CC(C)C)NC(=O)[C@H](CCCNC(=N)N)NC(=O)[C@H](CC(=O)O)NC(=O)[C@H](CC(C)C)NC(=O)[C@H](CCC(=O)O)NC1=O [Peptide 2012, Myristoyl-NLR8ELDRLLS5ELN-NH2]	<	3.70
CC(=O)N[C@@H](CC(N)=O)C(=O)N[C@@H](CC(C)C)C(=O)N[C@@H](CO)C(=O)N[C@@H](CCC(=O)O)C(=O)N[C@]1(C)CCCCCCC=CCCC[C@@](C)(C(=O)N[C@@H](CC(N)=O)C(N)=O)NC(=O)[C@H](CCC(=O)O)NC(=O)[C@H](CC(C)C)NC(=O)[C@H](C)NC(=O)[C@H](C)NC(=O)[C@H](CCCNC(=N)N)NC(=O)[C@H](CC(=O)O)NC1=O [Peptide 1925, Ac-NLSER8DRAALES5N-NH2] (Ac-NLSE[R8]DRAALE[S5]N-NH2; staple 5-12)	<	3.70
CC(=O)N[C@@H](CC(N)=O)C(=O)N[C@@H](CC(C)C)C(=O)N[C@]1(C)CCCCCCC=CCCC[C@@](C)(C(=O)N[C@@H](CCC(=O)O)C(=O)N[C@@H](Cc2c[nH]c3ccccc23)C(=O)N[C@@H](CC(N)=O)C(N)=O)NC(=O)[C@H](CC(C)C)NC(=O)[C@H](CC(C)C)NC(=O)[C@H](CCCNC(=N)N)NC(=O)[C@H](CC(=O)O)NC(=O)[C@H](Cc2c[nH]c3ccccc23)NC(=O)[C@H](CCC(=O)O)NC1=O [Peptide 1933, Ac-NLR8EWDRLLS5EWN-NH2] (Ac-NL[R8]EWDRLL[S5]EWN-NH2; staple 3-10)	=	3.81
CSCC[C@@H]1NC(=O)[C@H](Cc2ccccc2)NC(=O)[C@H](CCCNC(=N)N)NC(=O)[C@H](CC(C)C)NC(=O)[C@H](CCCNC(=N)N)NC(=O)[C@H](C)NC(=O)[C@](C)(NC(=O)[C@H](CCCNC(=N)N)NC(=O)[C@H](CCCNC(=N)N)NC(C)=O)CCCCCCC=CCCC[C@@](C)(C(=O)N[C@@H](CCC(N)=O)C(=O)N[C@@H](Cc2ccccc2)C(=O)N[C@@H](Cc2ccc(O)cc2)C(N)=O)NC1=O [Peptide 1929, Ac-RRR8ARLRFMS5QFY-NH2] (Ac-RR[R8]ARLRFM[S5]QFY-NH2; staple 3-10)	=	4.11
